TESTED TARGET: UniProtKB P22460
Sequence (P22460 whole entry): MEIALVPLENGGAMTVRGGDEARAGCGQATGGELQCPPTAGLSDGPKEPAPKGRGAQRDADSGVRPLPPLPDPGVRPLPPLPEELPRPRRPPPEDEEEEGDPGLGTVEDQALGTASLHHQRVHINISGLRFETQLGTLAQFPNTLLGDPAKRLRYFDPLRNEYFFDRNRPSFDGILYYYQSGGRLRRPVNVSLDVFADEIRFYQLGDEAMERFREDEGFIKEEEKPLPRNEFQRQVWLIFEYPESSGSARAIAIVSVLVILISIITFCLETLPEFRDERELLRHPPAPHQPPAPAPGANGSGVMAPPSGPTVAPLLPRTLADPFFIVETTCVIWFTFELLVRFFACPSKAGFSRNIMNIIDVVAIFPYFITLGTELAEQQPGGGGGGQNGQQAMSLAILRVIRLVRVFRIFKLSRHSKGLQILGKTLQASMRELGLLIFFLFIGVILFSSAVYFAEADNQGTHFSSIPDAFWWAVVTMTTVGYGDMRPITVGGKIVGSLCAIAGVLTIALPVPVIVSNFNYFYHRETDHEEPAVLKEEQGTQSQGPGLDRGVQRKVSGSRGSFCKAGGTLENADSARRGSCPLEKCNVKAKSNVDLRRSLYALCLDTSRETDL
TEST: 86Rb efflux assay, inhibition of 86Rb efflux through Kv1.5 potassium channels expressed in CHO cells
TEST PARAMETERS: Kv1.5 in CHO cells, 70 mM KCl, 1 minute
pIC50: −log10 of the molar value.
MEASURE: pIC50

Solved cases (3 shown):
COMPOUND | TESTED TARGET | pIC50
COc1cc(C)c(S(=O)(=O)NC2c3cc(NC(=O)c4ccccc4)ccc3CCC2O)c(C)c1C (stereo not drawn) [Entry 110] | UniProtKB P22460 | 4.92
Cc1cccc(C(=O)Nc2ccc3c(c2)C(NS(=O)(=O)c2cccc(C)c2)C(O)CC3)c1 (stereo not drawn) [Entry 97] | UniProtKB P22460 | 4.41
CCc1ccc(S(=O)(=O)NC2c3cc(NC(=O)C4Cc5ccccc5CN4CC)ccc3CCC2O)cc1 (stereo not drawn) [Entry 24] | UniProtKB P22460 | 5.23

A = CCCc1ccc(S(=O)(=O)NC2c3cc(NC(=O)c4ccc([N+](=O)[O-])cc4)ccc3CCC2O)cc1 (stereo not drawn) [Entry 85]
B = CCc1ccc(C(=O)Nc2ccc3c(c2)C(NS(=O)(=O)c2ccc(C(C)C)cc2)C(O)CC3)cc1 (stereo not drawn) [Entry 40]
Between A and B , whose recorded pIC50 is greater? In your reply, give the label of the chosen option.
B
